test: NCI Yeast Anticancer Drug Screen. Data for the cln2 rad14 strain (AID 165);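 note: 0% = growth equal to vehicle treated cultures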; details: S. cerevisiae cln2 rad14 strain, at 50.0 µM, active compounds read high
Compounds without any hit were thinned out: in the full panel of roughly 79,000, 15% have a hit.
# cutoff 90% applies to growth inhibition; >= gives yes (1), < gives no (0)

# input Has `O=C(O)/C=C/c1ccc2c(c1)CC1(Cc3ccccc3C1)C2` a recorded growth inhibition greater than or equal to 90%?
# output no (0)

# input For `O=C1c2ccccc2C(=O)c2c1cccc2[N+](=O)[O-]` then?
# output no (0)

# input For `CN(C)c1ccccc1CC(c1c[nH]c2ccccc12)c1c[nH]c2ccccc12` then?
# output no (0)

# input For `CCCCCCCCCCCCCCCCCc1nnc(N)o1` then?
# output no (0)

# input For `Cc1nc(Nc2ccccc2)sc1C(=O)NNc1ccc([N+](=O)[O-])cc1[N+](=O)[O-]` then?
# output no (0)

# input For `CCCCCOC(=O)c1ccc(O)cc1` then?
# output no (0)

# input For `CCOC(=O)/C(=C\c1ccccc1)C(=O)CCN1CCOCC1` then?
# output no (0)

# input For CCOC(CC)C(O)(c1ccc(N(C)C)cc1)c1ccc(N(C)C)cc1 (stereo unspecified) then?
# output yes (1)

# input For `Nc1ccc(S(=O)(=O)N2CCCc3ccccc32)cc1` then?
# output no (0)

# input For `CN(C)C1=C(Cl)C(=O)c2ccccc2C1=O` then?
# output no (0)

# input For `O=c1[nH]c(C(F)(F)F)c(F)c(=O)[nH]1` then?
# output yes (1)

# input For `O=C1c2ccccc2/C=C\C(c2ccccc2)=N/N1c1ccccc1Cl` then?
# output no (0)

# input For `COc1ccc2ccccc2c1/C=C/C(=O)c1ccccc1` then?
# output no (0)

# input For `Clc1ccnc2c1ccc1c(Cl)ccnc12` then?
# output no (0)

# input For `CC(=O)Oc1ccc(-c2ccccc2)cc1Br` then?
# output no (0)

# input For `CC(C)NC(=O)OCc1c(CO)c2c(n1C)-c1ccccc1CC2` then?
# output yes (1)

# input For `O=C1C=C(OCC=C(C(F)(F)F)C(F)(F)F)C(=O)c2ccccc21` then?
# output no (0)

# input For `Cc1ccc(NC(=O)CSC(N)=O)cc1C` then?
# output no (0)

# input For `O=C1N=c2ccc(Br)cc2=C1c1sc(=O)n(Cc2nc3ccccc3[nH]2)c1O` then?
# output no (0)

# input For CC1C(=O)C(Br)CC2C1(C)CCC1C2(C)CCC2(C)C3CC(C)(C)CCC3(C)CCC12C (stereo unspecified) then?
# output no (0)

# input For `O=C1C=CCCCC1(c1ccccc1)c1ccccc1` then?
# output no (0)

# input For `Cc1ccccc1Sc1ccccc1[N+](=O)[O-]` then?
# output no (0)

# input For `c1ccc(CN2CCC3(CC2)SSC2(CCN(Cc4ccccc4)CC2)S3)cc1` then?
# output no (0)

# input For CCOC(=O)C(NC(C)=O)[CH](c1ccc(OC)cc1)[Sn]([c]1ccccc1)([c]1ccccc1)[c]1ccccc1 (stereo unspecified) then?
# output yes (1)

# input For `O=C(c1ccccc1)c1[nH]c2ccccc2c(=O)c1-c1ccc([N+](=O)[O-])cc1` then?
# output yes (1)

# input For `O=C(N/C(=C/c1ccc(Cl)cc1Cl)c1nc2ccccc2s1)c1ccccc1` then?
# output yes (1)

# input For `CN1C(Cl)=NS(=O)(=O)c2ccccc21` then?
# output no (0)

# input For `C/C(=N\N(C)C(=S)Nc1ccccc1)c1ccccn1` then?
# output no (0)

# input For `Oc1cc(-[n+]2ccc3ccccc3c2)c(O)c2ccccc12` then?
# output no (0)

# input For COC12C=CC(CC1)c1c2c(O)c2ccncc2c1O (stereo unspecified) then?
# output no (0)

# input For c1ccc(C(CNCCN2CCCCCC2)C2CCCCC2)cc1 (stereo unspecified) then?
# output no (0)

# input For `C/C(=N/NC(=S)Nc1ccc([N+](=O)[O-])cc1)c1cccc(/C(C)=N\NC(=S)Nc2ccc([N+](=O)[O-])cc2)n1` then?
# output no (0)

# input For `O=C(/C=N/O)Nc1ccc(Cl)c(I)c1` then?
# output no (0)

# input For `CCn1c2nc(=O)n(C)c(=O)c-2[n+]([O-])c2cc(C)ccc21` then?
# output no (0)

# input For `O=[N+]([O-])c1ccc(Sc2ccc([N+](=O)[O-])o2)cc1` then?
# output no (0)

# input For CC(=O)N1C(c2[nH]c3ccccc3c2Cc2ccccc2)CCN1c1ccccc1 (stereo unspecified) then?
# output no (0)

# input For `Cc1cc(NS(=O)(=O)c2ccc(NCc3c4ccccc4nc4cc(Cl)ccc34)cc2)no1` then?
# output yes (1)

# input For Cc1ccc(N2CC3CC4(C)C=CC3(C2)O4)cc1 (stereo unspecified) then?
# output no (0)

# input For `CCC(CC)C(=O)O.[Ag]` then?
# output yes (1)

# input For O=C1OC(c2ccc3c(c2)OCO3)Sc2ccccc21 (stereo unspecified) then?
# output no (0)

# input For `COc1ccc(CN2C(=O)C(Cl)=C(Cl)C2=O)c(OC)c1` then?
# output yes (1)

###

test: NCI Yeast Anticancer Drug Screen. Data for the sgs1 mgt1 strain (AID 161);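 note: 0% = growth of cultures given vehicle only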; details: S. cerevisiae sgs1 mgt1 strain, at 50.0 µM, active compounds read high
The panel holds about 79,000 compounds, 15% with a hit somewhere; the sample as a whole holds those more often.
# cutoff 90% applies to growth inhibition; >= gives t, < gives f

# input Has CC(O)(c1ccccc1)c1ccccc1S(=O)(=O)Nc1ccccc1 (stereo not drawn) a recorded growth inhibition greater than or equal to 90%?
# output t

# input For `CC(C)(C)C1=CC(=CC=C2C=CN(CCO)C=C2)C=C(C(C)(C)C)C1=O` then?
# output f

# input For `CC(=O)N1CCCC2=C1CCCCCCCCCC2` then?
# output f

# input For `[O-]/[N+]1=[N+](\[O-])c2ccccc2CCc2ccccc21` then?
# output f

# input For `O=C1c2ccccc2/C=C\C(c2ccccc2)=N/N1c1ccccc1Cl` then?
# output f

# input For OC1(c2ccc(Br)cc2)C2CCCCC2C2CCCCC21 (stereo not drawn) then?
# output t

# input For `Cc1ccccc1C(=N)c1ccccc1Cc1cccc2ccccc12` then?
# output t

# input For `COc1ccc(SC2=C(N(C)C)C(=O)c3ccccc3C2=O)cc1` then?
# output f

# input For `CN(CCCN(CCO)CCO)C1CC(C)(C)N(O)C(C)(C)C1` then?
# output f

# input For `O=C(O)Cc1c[nH]c2ccccc12` then?
# output t

# input For `CSC(=S)NN=C(c1ccccc1)c1ccccc1` then?
# output f

# input For N#CC(C(=O)C(=O)Nc1ccc(Cl)cc1)c1c(Cl)cccc1Cl (stereo not drawn) then?
# output f

# input For `CSc1cc2c(cc1N)Cc1ccccc1-2` then?
# output t

# input For `O=C(Cc1csc2[n+]1C(=O)/C(=C/c1cccc([N+](=O)[O-])c1)S2)Nc1ccccc1` then?
# output f

# input For `COc1ccc(-c2cn(-c3ccccc3)c3ncnc(N)c23)cc1` then?
# output f

# input For `O=C(NCCc1c(-c2ccccc2)[nH]c2ccccc12)C(F)(F)C(F)(F)F` then?
# output f

# input For COC1OC(CO)C(O)C(OC(=O)c2ccc([N+](=O)[O-])cc2)C1OS(=O)(=O)c1ccc(C)cc1 (stereo not drawn) then?
# output f

# input For `c1ccc2c(O[Si](Oc3cccc4ccccc34)(Oc3cccc4ccccc34)Oc3cccc4ccccc34)cccc2c1` then?
# output t

# input For `COC(=O)[C@]1(C)CCC[C@]2(C)c3ccc(C(C)C)cc3C(=O)C[C@@H]12` then?
# output t

# input For `CCOC(=S)SSC(=S)NCCNC(=S)SSC(=S)OCC` then?
# output f

# input For O=C1c2ccccc2-c2ccc(N3C(=O)C4CCCCC4C3=O)cc21 (stereo not drawn) then?
# output f

# input For CCCCN(CCCC)CC(O)c1cc(-c2ccc(Cl)cc2)nc2c(-c3ccccc3)cccc12 (stereo not drawn) then?
# output f

###

test: NCI Yeast Anticancer Drug Screen. Data for the rad50 strain (AID 155);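 note: 0% = growth of vehicle-only cultures of the same strain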; details: S. cerevisiae rad50 strain growth inhibition; at 50.0 µM (retest, dose inferred, filed as 5.0)
About 79,000 compounds went through this panel and 15% of them were active in at least one assay; those are over-represented in the sample as a whole. Activity calls are given as the source filed them. Cut-off read from the data, not from the text of the source: active = growth inhibition above about 70%; inactive = the rest.
In this exercise, the only acceptable responses are active, inactive

# input Which outcome was entered for the compound `CCOC(=O)N1C=C(C(=O)OC)C(c2ccccc2)C(C(=O)OC)=C1` in this test?
# output inactive

# input For Cc1cc(C)c(O)c(C2CC3CCC2(C)C3(C)C)c1 (stereo unspecified) then?
# output active

# input For CCCCCCCCCC(C)CC(=O)NCCCN(C)CCCCN(C)C (stereo unspecified) (tested in a mixture with another compound) then?
# output inactive

# input For `CC(C)NC(=O)OCc1c(CO)c2c(n1C)-c1ccccc1CC2` then?
# output active

# input For `Cc1ccc(N=Nc2c(-c3ccccc3)nn(C(=S)S)c2-c2ccccc2)cc1` then?
# output inactive

# input For `SCCCCCCCCCCS` then?
# output active

# input For CCOC(=O)C(Cc1cc(I)c(Oc2ccc(OC)cc2)c(I)c1)NC(C)=O (stereo unspecified) then?
# output active

# input For `Cc1cc(C)n2nc(N)c(C#N)c2c1C#N` then?
# output inactive

# input For `CCOC(=O)c1cnn(-c2ccccc2)c1N` then?
# output active

# input For `O=[N+]([O-])/C(C=Nc1ccccc1)=C/Nc1ccccc1` then?
# output inactive

# input For `[C-]#[N+]C(C)(c1ccccc1)c1ccccc1` then?
# output active
